Data origin: ChEMBL document CHEMBL1124226

- Test system: P388 leukemia (mouse)
- Protocol: Net log value for P388 leukemia cell kill in mice was determined
The following molecules are shown together with reported Net log cell kill values.
Give a plain numeric answer without units written out.

Worked examples, 5 molecules total:
mol=CCN(CC)CCn1nc2c3c(c(NCCN)ccc31)Sc1c(O)cccc1-2.Cl.O assay_value=-0.9
mol=CCN(CC)CCNc1ccc2c3c(nn2CCNCCO)-c2ccccc2Sc13.Cl.O assay_value=0.5
mol=CCN(CC)CCn1nc2c3c(c(NCCN4CCOC4=O)ccc31)Sc1ccccc1-2 assay_value=6
mol=CCN(CC)CCn1nc2c3c(c(N)ccc31)Sc1ccc(OC)cc1-2.Cl assay_value=1.4
mol=CCN(CC)CCn1nc2c3c(c(NCCNCCO)ccc31)Sc1ccc(O)cc1-2.Cl.O assay_value=4.5

For this molecule ( CCN(CC)CCn1nc2c3c(c(NCCN4C(=O)c5ccccc5C4=O)ccc31)Sc1c(OC)cccc1-2 ), measured Net log cell kill is -1.5

For this molecule ( CCN(CC)CCn1nc2c3c(c(NCCN)ccc31)S(=O)(=O)c1ccccc1-2.Cl.O ), measured Net log cell kill is 1.8

For this molecule ( CCN(CC)CCNc1ccc2c3c(nn2CCN(CC)CC)-c2ccccc2S(=O)(=O)c13 ), measured Net log cell kill is -1.6

For this molecule ( CCN(CC)CCn1nc2c3c(c(NC(=O)CN)ccc31)Sc1ccccc1-2.Cl.O ), measured Net log cell kill is 2.4

For this molecule ( Cl.Nc1ccc2c3c(nn2CCNCCO)-c2ccccc2Sc13.O ), measured Net log cell kill is 4.3
